Reported pIC50 values for the following compounds.
- targetSystem: DNA-PK phosphorylation at Serine 2056 (Homo sapiens, UniProt P78527)
- Construct: FaDu cells were purchased from ATCC; host or cells: FaDu
- procedureDetails: Cellular Assay for Inhibition of DNA-PK Phosphorylation at Serine 2056 in FaDu cells (sandwich ELISA, neocarzinostatin)
- Type: cell-based
- assaySetup: pSer2056 DNA-PK, Table 2
pIC50: −log10 of the molar value.

Some solved entries appear below for comparison.
# compound, pIC50
data = [
    ("CN(C)C(=O)COc1cnc(N[C@H]2CC[C@@H](Oc3nc(N4CCOCC4)cc4ncc(NS(C)(=O)=O)cc34)CC2)nc1 [LFA012]", "6.00 to 7.00"),
    ("Cn1c(COc2cnc3cc(N4CCOCC4)nc(O[C@H]4CC[C@@H](Nc5ncccn5)CC4)c3c2)cnc1[N+](=O)[O-] [LFA118]", "4.52 to 5.00"),
    ("CN(C)C(=O)COc1cnc(N[C@H]2CC[C@@H](Oc3nc(N4CCOCC4)cc4ncc(OCc5cnc([N+](=O)[O-])n5C)cc34)CC2)nc1 [LFA114]", "4.52 to 5.00"),
    ("CN(C)C(=O)COc1cnc(N[C@H]2CC[C@@H](Oc3nc(N4CCOCC4)cc4ncc(O)cc34)CC2)nc1 [LFA113]", "> 7.00"),
]

For the compound CN(C)C(=O)COc1cnc(NC2CCC(Oc3nc(N4CCOCC4)cc4ncc(N(Cc5ncc([N+](=O)[O-])n5C)S(C)(=O)=O)cc34)CC2)nc1 (stereo not drawn) [LFA013] , give its measured pIC50 value. 5.00 to 6.00

Query pIC50 for Cn1c(COc2cnc3cc(N4CCOCC4)nc(O[C@H]4CC[C@@H](NC(=O)c5ncccn5)CC4)c3c2)cnc1[N+](=O)[O-] [LFA116] 4.52 to 5.00

Return value of pIC50 for input Cn1c(COC(=O)Nc2cnc3cc(N4CCOCC4)nc(O[C@H]4CC[C@@H](Nc5ncccn5)CC4)c3c2)cnc1[N+](=O)[O-] [LFA108] , no commentary. 4.52 to 5.00

Give pIC50 for Cn1c(CN(c2cnc3cc(N4CCOCC4)nc(OC4CCC(NC(=O)c5ncccn5)CC4)c3c2)S(C)(=O)=O)cnc1[N+](=O)[O-] (stereo not drawn) [LFA016] 4.52 to 5.00

Retrieve pIC50 measured for CN(C)C(=O)COc1cnc(N[C@H]2CC[C@@H](Oc3nc(N4CCOCC4)cc4ncc(N)cc34)CC2)nc1 [LFA111] and print it. 6.00 to 7.00
